Method: Metabolic stability, liver S9 fraction
Format: in vitro ADME
Condition: Dog, 37 °C, read-out: Liver S9 fraction t1/2 (converted)
Observation type: half-life at 1 µM (h)
Return type: number; implicit unit h.

Input: For the molecule `CC(C)n1c(C2CCNCC2)nc2c([N+](=O)[O-])c(Br)c(Br)cc21` , what half-life at 1 µM is on record?
Output: 6.3

---

System name: FLT3 (ITD) (Homo sapiens, UniProt P36888, ITD)
Sequence (P36888 564-993): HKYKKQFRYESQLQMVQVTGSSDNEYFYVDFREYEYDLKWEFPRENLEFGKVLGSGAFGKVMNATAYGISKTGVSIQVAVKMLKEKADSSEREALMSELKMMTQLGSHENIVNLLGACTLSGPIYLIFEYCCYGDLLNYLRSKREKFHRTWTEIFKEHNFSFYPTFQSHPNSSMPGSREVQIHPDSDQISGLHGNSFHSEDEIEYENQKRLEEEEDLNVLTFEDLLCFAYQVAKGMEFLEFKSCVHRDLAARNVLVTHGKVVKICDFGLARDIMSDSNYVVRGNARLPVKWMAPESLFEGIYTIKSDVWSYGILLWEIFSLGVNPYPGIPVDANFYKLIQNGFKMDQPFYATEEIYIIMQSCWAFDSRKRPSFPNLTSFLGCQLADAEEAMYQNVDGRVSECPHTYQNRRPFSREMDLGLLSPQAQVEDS
Method: KINOMEscan Kd (DiscoverX)
Type: binding
Observation type: Kd (nM)
Return type: number; implicit unit nM.

Input: // map `CC(C)n1c(C2CCNCC2)nc2c([N+](=O)[O-])c(Br)c(Br)cc21` to recorded Kd (system: FLT3 (ITD) (Homo sapiens, UniProt P36888, ITD))
Output: 16
